AC1.4 for assorted molecules
Tested on: Bovine cardiac myofibrils
Measurement notes: In vitro model of dose-dependent myofibril ATPase modulation (AC1.4, pyruvate kinase/lactate dehydrogenase-coupled ATPase assay at pCa25)
Format: biochemical
Applied conditions: concentration at which ATPase activity was 1.4-fold higher than the bottom of the dose curve, mean of a minimum of two independent tests
Numeric answer only, unit µM assumed.

The examples below pair each entry with its known result.
C[C@H](C(=O)N[C@H](C)c1ccc(Cl)cc1F)N(C)C(=O)[C@@H]1CN(S(=O)(=O)N2CC(C#N)C2)CCO1 [Example 419] = 1.542
Cc1cncc(C(=O)N2[C@@H](C(=O)N[C@@H](c3cc(F)c(Cl)cc3F)C3COC3)C[C@H]3C[C@H]32)c1 [Example 695] = 5.5132
O=C(NCc1ccc(C(F)(F)F)cc1)[C@H]1CCCN1C(=O)[C@H]1CCCN(S(=O)(=O)N2CC(c3ccccn3)C2)C1 [Example 707] = 5.821
N#CC1CN(S(=O)(=O)N2CCC[C@H](C(=O)N3CCC[C@@H]3C(=O)NCc3ccc(F)c(F)c3)C2)C1 [Example 221] = 0.4821
N#CC1CN(S(=O)(=O)N2CCC[C@H](C(=O)N3CCC[C@@H]3C(=O)N[C@@H](c3cc(F)c(C(F)(F)F)cc3F)C3CC3)C2)C1 [Example 35] = 0.0372

### Prompt Reported AC1.4 for N#CC1CN(S(=O)(=O)c2cccc(C(=O)N3CCC[C@@H]3C(=O)NCc3cnc(C(F)(F)F)nc3)c2)C1 [Example 136] : what is it?
### Response 0.2235

### Prompt Reported AC1.4 for CS(=O)(=O)c1cccc(C(=O)N2[C@@H](C(=O)N[C@@H](c3ccc(C(F)(F)F)cc3F)C3(F)COC3)C[C@H]3C[C@H]32)c1 [Example 676] : what is it?
### Response 4.59
